Test system: CCRF-CEM
test-summary: NCI tumour cell line growth inhibition, 48 h
Activity calls are given as the source filed them. No stated cut-off is given here; in the data, active = GI50 up to about 1.1 µM and inactive = higher.
measure: GI50

compound | assay-system | GI50
CC(=O)/C(=C\NC(=S)Nc1ccc(S(N)(=O)=O)cc1)C(=O)Nc1ccccc1C | CCRF-CEM | 16 µM (inactive)
CCOC(=O)NNC(=O)NCc1ccccc1CNC(=O)NNC(=O)OCC | CCRF-CEM | > 100 µM (inactive)
COC(=O)CCCN(C)c1nc(N)n[nH]1 | CCRF-CEM | > 100 µM (inactive)

Please state recorded GI50 (tested on CCRF-CEM) of CNC(=O)N(CCC#N)CCN(C(=O)NC)c1ccccc1 > 100 µM (inactive)

Now the compound CCOC(=O)C(O)(NC(C)=O)C(F)(F)F (stereo unspecified) > 100 µM (inactive)

###

System: Hs-578T
test-summary: NCI tumour cell line growth inhibition, 48 h
Active and inactive are the calls of the source. Cut-off read from the data, not from the text of the source: active = GI50 up to about 1.1 µM and inactive = higher.
Listed molecules paired with reported GI50

molecule | GI50
COc1ccc(-c2c(C(C)=O)c(C)n(C3OC(CO)C(O)C(O)C3O)c(=S)c2C#N)cc1 (stereo unspecified) | 98.2 µM (inactive)

// lookup GI50 for COC(=O)c1cccc2c1Oc1ccccc1S2 40.6 µM (inactive)

Now the molecule Nc1nc(Cl)cc(NCC2(CO)CCCCC2)n1 > 100 µM (inactive)

Now the molecule Oc1nc2nnc(COc3ccc(Cl)cc3Cl)n2nc1Cc1ccccc1 51.6 µM (inactive)

Now the molecule O=C(O)CC(O)(C(=O)O)C(O)C(=O)O (stereo unspecified) 119 µM (inactive)

Now the molecule NC(=O)C(c1ccccc1)N1OC2C(=O)N(c3cccc4ccccc34)C(=O)C2C1c1c2ccccc2c(Cl)c2ccccc12 (stereo unspecified) 18.6 µM (inactive)

Now the molecule CC1(C)C2CC3C4CC5(Nc6ccccc6C5N41)[C@]3(C)CC2=O (stereo partly specified) > 50 µM (inactive)

Now the molecule O=C(NCCc1ccccc1)[C@H]1CCCC[C@@H]1CCO > 100 µM (inactive)

###

Tested on: XF498
test-summary: NCI tumour cell line growth inhibition, 48 h
Calls of active or inactive are those of the source. Rule as the data show it: active = GI50 up to about 1.1 µM and inactive = higher.
Hello, when you answer, please use one of the following outcomes: active, inactive

compound | class-assignment
Cc1cn(Cc2ccccc2CCO)c(=S)[nH]c1=O | inactive
Oc1cc(-c2ccc(Oc3ccccc3)cc2)nc2cc3c(cc12)OCO3 | inactive
O=C(Cn1ccnc1[N+](=O)[O-])N(CCO)CCO | inactive
COc1cc(CC(C)N)ccc1O (configuration not stated) | inactive
O=C(Nc1cccc(O)c1)C(=O)C1C(=O)NC(=S)NC1=O | inactive

Test call for this compound, please: c1ccc([P+](CCC[P+](c2ccccc2)(c2ccccc2)c2ccccc2)(c2ccccc2)c2ccccc2)cc1 inactive

Now the compound C/C(=C1/N=C(c2cc([N+](=O)[O-])ccc2Cl)N(c2cccc(C)c2)C1=O)c1cc2ccccc2oc1=O inactive

###

System: PC-3
test-summary: NCI tumour cell line growth inhibition, 48 h
The source made the active and inactive calls. Cut-off read from the data, not from the text of the source: active = GI50 up to about 1.1 µM and inactive = higher.
measure: GI50

molecule | GI50
COc1cc(CC(C)N)ccc1O (stereo unspecified) | > 100 µM (inactive)

// lookup GI50 for O=C(NCCc1ccccc1)[C@H]1CCCC[C@@H]1CCO > 100 µM (inactive)

Now the molecule CC(C)C1OC2(C)OC(=N)C1(C#N)C(C#N)(C#N)C2C (stereo unspecified) 24.6 µM (inactive)

Now the molecule COc1cc(C2c3cc4c(cc3[C@@H](Nc3ccc(F)cc3)C3COC(=O)[C@H]23)OCO4)cc(OC)c1O (stereo partly specified) 1.65 µM (inactive)

Origin of values: ChEMBL document CHEMBL1201862
